Molecular target: full-length human PLD2 (Homo sapiens (Human), UniProt O14939)
Sequence (O14939 whole entry): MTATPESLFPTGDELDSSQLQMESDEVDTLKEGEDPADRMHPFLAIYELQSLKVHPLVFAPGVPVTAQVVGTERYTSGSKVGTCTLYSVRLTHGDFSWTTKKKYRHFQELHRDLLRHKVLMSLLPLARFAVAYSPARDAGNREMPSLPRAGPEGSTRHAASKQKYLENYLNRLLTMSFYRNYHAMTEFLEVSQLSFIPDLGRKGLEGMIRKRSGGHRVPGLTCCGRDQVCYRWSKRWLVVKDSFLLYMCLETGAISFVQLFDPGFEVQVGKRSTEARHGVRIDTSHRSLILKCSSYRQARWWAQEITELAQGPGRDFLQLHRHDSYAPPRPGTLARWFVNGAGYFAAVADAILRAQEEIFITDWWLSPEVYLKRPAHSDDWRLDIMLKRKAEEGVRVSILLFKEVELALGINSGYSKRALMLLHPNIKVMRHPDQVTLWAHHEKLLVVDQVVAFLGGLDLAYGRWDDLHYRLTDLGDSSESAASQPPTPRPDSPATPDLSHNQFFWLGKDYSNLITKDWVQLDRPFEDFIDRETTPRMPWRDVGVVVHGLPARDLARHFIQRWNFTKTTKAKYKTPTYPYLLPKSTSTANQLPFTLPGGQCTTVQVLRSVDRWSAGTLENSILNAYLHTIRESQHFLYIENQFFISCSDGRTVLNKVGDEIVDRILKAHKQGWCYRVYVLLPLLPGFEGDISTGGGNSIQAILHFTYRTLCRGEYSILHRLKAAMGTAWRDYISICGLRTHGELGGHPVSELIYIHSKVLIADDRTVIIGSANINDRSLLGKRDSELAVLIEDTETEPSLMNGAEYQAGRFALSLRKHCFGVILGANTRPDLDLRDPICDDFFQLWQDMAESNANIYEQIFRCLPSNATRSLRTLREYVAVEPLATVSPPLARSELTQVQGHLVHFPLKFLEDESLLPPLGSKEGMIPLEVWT
Experiment: Evaluation of human PLD2 enzyme inhibitory activity (Amplex Red / choline oxidase fluorescence)
Type: biochemical
Conditions: full-length human PLD2 enzyme; read-out: PLD2 IC50
Method: A method for measuring human PLD2 enzyme inhibitory activity using an enzyme in which a FLAG-tag is added to the N-terminus of full-length human PLD2 (1-933 amino acids) is shown below. DNA fragment in which a FLAG-tag sequence is added to the 5′-end of full-length human PLD2 was amplified by PCR method, using commercially available human PLD2 gene (Promega KK) as a template. […]
Please respond with reported IC50 for every item in the list.

Lab note: need IC50 for `Cc1ccncc1C1=NNC(=O)O[C@]12CC[C@@H](C[C@H](C)NC(=O)c1nc3ccccc3[nH]1)CC2` on full-length human PLD2 (Homo sapiens (Human), UniProt O14939), anyone have it? < 10 nM

Which IC50 is reported with full-length human PLD2 (Homo sapiens (Human), UniProt O14939) for this entry: `CNC(=O)C(=O)N[C@@H](C)C[C@H]1CC[C@]2(CC1)OC(=O)NN=C2c1ccc(OC(F)(F)F)cc1Br` ? < 10 nM

Find IC50 (full-length human PLD2 (Homo sapiens (Human), UniProt O14939)) for the entry `CNC(=O)C(=O)N[C@@H](C)C[C@H]1CC[C@]2(CC1)OC(=O)NN=C2c1cnc(N2CC(C(F)(F)F)C2)cc1C` < 10 nM

* * *

Please provide measured pIC50 for the entries that follow.
molecular target: full-length human PLD1 (Homo sapiens (Human)); assay: Evaluation of human PLD1 enzyme inhibitory activity (Amplex Red / choline oxidase fluorescence); assay type: biochemical; conditions: full-length human PLD1 enzyme; read-out: PLD1 IC50
To interpret pIC50, take it as minus log10 of a concentration measured in moles per litre.

Would you mind telling me what pIC50 value was observed for `C[C@@H](C[C@H]1CC[C@]2(CC1)OC(=O)NN=C2c1ccc(OCC(C)(C)O)cc1Br)NC(=O)c1cc2ccccc2o1` ? 7.85

For `COc1cc(C)c(C2=NNC(=O)O[C@]23CC[C@@H](C[C@H](C)NC(=O)N2CCc4ccccc4C2)CC3)cn1` , what is its reported pIC50? 7.82

pIC50 lookup needed for `Cc1ccncc1C1=NNC(=O)O[C@]12CC[C@@H](C[C@H](C)NC(=O)c1cc3ccccc3o1)CC2` , thanks. 7.89

pIC50 lookup needed for `CNC(=O)C(=O)N[C@@H](C)C[C@H]1CC[C@]2(CC1)OC(=O)NN=C2c1ccc(F)cc1` , thanks. 7.16

I would be grateful if you could share the reported pIC50 for `CNC(=O)C(=O)N[C@@H](C)C[C@H]1CC[C@]2(CC1)OC(=O)NN=C2c1cnc(C(C)(C)O)cc1C` . 7.17

Query (compound): `Cc1cc(F)ccc1C1=NNC(=O)O[C@]12CC[C@@H](C[C@H](C)NC(=O)N1CC[C@@H](c3ccccc3)C1)CC2` ; field requested: pIC50 6.11

Could you share which pIC50 value was measured for `Cc1cc(C(=O)N[C@@H](C)[C@@H](C)N2CCC3(CC2)OC(=O)NN=C3c2ccc(F)cc2Br)[nH]n1` ? 6.91

Quick check: pIC50 of `CBC(=O)C(=O)N[C@@H](C)C[C@H]1CC[C@]2(CC1)OC(=O)NN=C2c1ccc(S(C)(=O)=O)cc1Cl` ? 7.48

Which pIC50 reading was recorded for the compound `CNC(=O)C(=O)N[C@@H](C)C[C@H]1CC[C@]2(CC1)OC(=O)NN=C2c1ccc(-c2ccccc2)cc1-c1ccccc1` ? 7.64

So what's the measured pIC50 for this one? `CNC(=O)C(=O)N[C@@H](C)C[C@H]1CC[C@]2(CC1)OC(=O)NN=C2c1ccc(C(C)(C)O)cc1Br` 7.74

Which pIC50 is listed for `CNC(=O)C(=O)N[C@@H](C)C[C@H]1CC[C@]2(CC1)OC(=O)NN=C2c1cnc(C)cc1Cl` ? 7.68

Find the recorded pIC50 belonging to `C[C@@H](C[C@H]1CC[C@]2(CC1)OC(=O)NN=C2c1cc(OC(F)(F)F)ccc1Br)NC(=O)c1cnn(C)c1` and report it. 7.96

So what's the measured pIC50 for this one? `CNC(=O)C(=O)N[C@@H](C)C[C@H]1CC[C@]2(CC1)OC(=O)NN=C2c1cnccc1C` 7.51

Find the recorded pIC50 belonging to `C[C@@H](C[C@H]1CC[C@]2(CC1)OC(=O)NN=C2c1cc(OCC(F)(F)F)ccc1Br)NC(=O)C(=O)NC1CC1` and report it. 7.89

Look at this compound and give its reported pIC50. `CNC(=O)C(=O)N[C@@H](C)C[C@H]1CC[C@]2(CC1)OC(=O)NN=C2c1ccc(OCC(F)(F)F)cc1Br` 7.89

What value of pIC50 has been reported for the following compound? `C[C@@H](CN1CCC2(CC1)OC(=O)NN=C2c1ccc(F)cc1Cl)NC(=O)c1ncn[nH]1` 5.09

Given the entry `CNC(=O)C(=O)N[C@@H](C)CN1CCC2(CC1)OC(=O)NN=C2c1ccc(F)cc1Cl` , report its measured pIC50. 7.35

Reported pIC50 for `Cc1cc(C(=O)N[C@@H](C)CN2CCC3(CC2)OC(=O)NN=C3c2ccc(F)cc2Cl)no1` : what is it? 7.24

Which value of pIC50 has been reported for `CNC(=O)C(=O)N[C@@H](C)C[C@H]1CC[C@]2(CC1)OC(=O)NN=C2c1ccc(OCC(C)(C)O)cc1Br` in the records? 7.74

* * *

biological target: full-length human PLD1 (Homo sapiens (Human), UniProt Q13393); assay: Evaluation of human PLD1 enzyme inhibitory activity (Amplex Red / choline oxidase fluorescence); assay type: biochemical; conditions: full-length human PLD1 enzyme; read-out: PLD1 IC50
Sequence (Q13393 other isoform, or with tags, fused parts or gaps): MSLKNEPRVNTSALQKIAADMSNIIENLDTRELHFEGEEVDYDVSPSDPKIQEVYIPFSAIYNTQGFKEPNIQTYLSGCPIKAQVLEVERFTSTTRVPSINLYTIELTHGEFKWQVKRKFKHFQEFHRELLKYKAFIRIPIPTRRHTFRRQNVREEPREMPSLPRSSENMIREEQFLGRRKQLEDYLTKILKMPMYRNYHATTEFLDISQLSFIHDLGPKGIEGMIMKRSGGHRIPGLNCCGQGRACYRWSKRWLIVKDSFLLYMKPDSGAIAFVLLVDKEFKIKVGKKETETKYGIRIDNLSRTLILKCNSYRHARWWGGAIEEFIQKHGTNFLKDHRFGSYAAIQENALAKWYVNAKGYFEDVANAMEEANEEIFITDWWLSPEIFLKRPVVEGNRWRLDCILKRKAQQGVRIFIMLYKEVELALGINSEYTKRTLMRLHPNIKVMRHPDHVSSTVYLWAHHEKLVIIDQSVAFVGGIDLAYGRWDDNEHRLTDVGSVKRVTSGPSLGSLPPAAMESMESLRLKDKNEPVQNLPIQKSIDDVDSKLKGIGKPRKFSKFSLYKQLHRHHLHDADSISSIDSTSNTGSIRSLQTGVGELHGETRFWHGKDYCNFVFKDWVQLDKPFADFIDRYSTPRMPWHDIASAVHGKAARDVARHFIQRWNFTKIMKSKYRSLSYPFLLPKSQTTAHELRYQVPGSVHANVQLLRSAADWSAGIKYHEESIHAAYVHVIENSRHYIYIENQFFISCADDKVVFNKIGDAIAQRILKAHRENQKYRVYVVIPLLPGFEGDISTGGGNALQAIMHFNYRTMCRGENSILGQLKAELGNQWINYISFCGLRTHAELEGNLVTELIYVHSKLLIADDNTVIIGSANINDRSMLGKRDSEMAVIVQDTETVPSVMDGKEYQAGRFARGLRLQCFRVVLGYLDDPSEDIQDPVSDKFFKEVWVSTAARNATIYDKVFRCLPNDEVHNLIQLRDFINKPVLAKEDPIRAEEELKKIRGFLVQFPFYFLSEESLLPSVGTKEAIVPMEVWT
RESULT_TYPE: IC50

Report IC50 for C[C@@H](CC1CCC2(CC1)OC(=O)NN=C2c1ccncc1Br)NC(=O)c1cc(Cl)no1 (mixture of isomers) tested on full-length human PLD1 (Homo sapiens (Human), UniProt Q13393). < 10 nM

Short answer please: IC50, full-length human PLD1 (Homo sapiens (Human), UniProt Q13393), entry `CC(C)S(=O)(=O)c1ccc(C2=NNC(=O)O[C@]23CC[C@@H](C[C@H](C)NC(=O)c2cc(Cl)no2)CC3)c(Br)c1` < 10 nM

Notebook entry, full-length human PLD1 (Homo sapiens (Human), UniProt Q13393) assay: IC50 of `Cc1cc(N2CCOCC2)ccc1C1=NNC(=O)O[C@]12CC[C@@H](C[C@H](C)NC(=O)C(=O)NC1CC1)CC2` = ? 23 nM

Query for full-length human PLD1 (Homo sapiens (Human), UniProt Q13393): what IC50 does the record show for C[C@@H](C[C@H]1CC[C@]2(CC1)OC(=O)NN=C2c1ccc(F)cc1Br)NC(=O)C1CCC(=O)N1 (mixture of isomers) ? 852 nM

Find IC50 (full-length human PLD1 (Homo sapiens (Human), UniProt Q13393)) for the entry `CNC(=O)C(=O)N[C@@H](C)C[C@H]1CC[C@]2(CC1)OC(=O)NN=C2c1ccc(C(C)=O)cc1C` 20 nM

Hello, I am looking for reported IC50 with full-length human PLD1 (Homo sapiens (Human), UniProt Q13393) for `CC(=O)Nc1cccc2[nH]c(C(=O)N[C@@H](C)C[C@H]3CC[C@]4(CC3)OC(=O)NN=C4c3ccc(F)cc3)cc12` . Could you help? 22 nM

Fill in the recorded IC50 for this compound, with full-length human PLD1 (Homo sapiens (Human), UniProt Q13393) as test system: `C[C@H](O)C(=O)N[C@@H](C)C[C@H]1CC[C@]2(CC1)OC(=O)NN=C2c1ccc(F)cc1Br` 999 nM

What reported IC50 corresponds to `C[C@@H](C[C@H]1CC[C@]2(CC1)OC(=O)NN=C2c1ccc(Br)cc1)NC(=O)c1cc2ccccc2o1` on full-length human PLD1 (Homo sapiens (Human), UniProt Q13393)? 33 nM

Record lookup: for full-length human PLD1 (Homo sapiens (Human), UniProt Q13393), what IC50 belongs to `CC(C)c1cc(F)ccc1C1=NNC(=O)O[C@]12CC[C@@H](C[C@H](C)NC(=O)c1cc(Cl)no1)CC2` ? 21 nM

Give the reported IC50 for `C[C@@H](C[C@H]1CC[C@]2(CC1)OC(=O)NN=C2c1cc(C#N)ccc1Br)NC(=O)c1cnn(C)c1` (system: full-length human PLD1 (Homo sapiens (Human), UniProt Q13393)). 15 nM

What is its IC50 for full-length human PLD1 (Homo sapiens (Human), UniProt Q13393)? Entry: `Cc1cc(C(=O)N[C@@H](C)C[C@]2(F)CC[C@@]3(CC2)OC(=O)NN=C3c2cc(C#N)ccc2Br)[nH]n1` 15 nM

I'm curious: which IC50 was measured for [2H]C([2H])([2H])NC(=O)C(=O)NC(C)CN1CCC2(CC1)OC(=O)NN=C2c1cc(C#N)ccc1Cl (stereo not shown) tested on full-length human PLD1 (Homo sapiens (Human), UniProt Q13393)? 62 nM

Look up IC50 with full-length human PLD1 (Homo sapiens (Human), UniProt Q13393) for this compound: `CNC(=O)C(=O)N[C@@H](C)C[C@H]1CC[C@]2(CC1)OC(=O)NN=C2c1cc(F)ccc1Br` < 10 nM
